# experimental-target: T1, Human EphA2 (Ecto), C-terminal polyHis (Human, UniProt P29317 24-537)
# T1 construct: extracellular domain; also called EPH receptor A2; ephrin type-A receptor 2
# T1 sequence (P29317 24-537): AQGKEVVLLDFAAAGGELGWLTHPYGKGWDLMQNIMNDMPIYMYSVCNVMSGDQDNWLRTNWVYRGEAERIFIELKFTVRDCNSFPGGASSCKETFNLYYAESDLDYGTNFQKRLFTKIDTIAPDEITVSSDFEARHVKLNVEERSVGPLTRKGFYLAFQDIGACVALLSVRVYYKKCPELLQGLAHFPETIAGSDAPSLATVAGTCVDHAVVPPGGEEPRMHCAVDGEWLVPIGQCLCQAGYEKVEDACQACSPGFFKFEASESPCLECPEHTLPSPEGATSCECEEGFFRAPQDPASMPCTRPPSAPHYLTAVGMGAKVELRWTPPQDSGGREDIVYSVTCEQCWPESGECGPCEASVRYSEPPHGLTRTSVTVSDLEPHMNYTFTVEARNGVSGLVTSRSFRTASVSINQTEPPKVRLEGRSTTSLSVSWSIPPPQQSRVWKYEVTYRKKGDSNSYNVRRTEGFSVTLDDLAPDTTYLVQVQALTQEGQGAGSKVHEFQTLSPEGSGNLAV
# measurement-protocol: fluorescence polarisation competition; competitor fluorescent Compound 66
Starred links: 1 amine or outer side, 2 acyl side, 3 side chain; linkers in the order of their positions; H or OH if unused. Positions of bridges follow the written chain, without caps; N, C: chain ends. Non-standard residues stand in square brackets, D forms with d. No end group written: not given here. 1Nal = N[C@@H](Cc1cccc2ccccc12)C(=O)O; TBMB = c1c(C[*:1])cc(C[*:3])cc1C[*:2]; Aib = CC(C)(N)C(=O)O; Sar = CNCC(=O)O
experimental-endpoint: Ki
Give the number first and the unit second.

QUERY: For the binder ADVHCPWGPFWCPVNRPGCA (linker 5-12-19 via TBMB (inferred), also called Compound 57) [Bicycle Compound Number 57 (TBMB scaffold)] , what Ki is on record?
RESULT: 1.2 nM

QUERY: For the binder ACMNDWLCQLGWTCA (linker 2-8-14 via TBMB, also called Compound 30) [Bicycle Compound Number 30 (TBMB scaffold)] , what Ki is on record?
RESULT: 56 nM

QUERY: For the binder [Sar][Sar]AC[Aib][1Nal]GPFWCPVNRP[dA]C (linker 4-11-18 via TBMB) [Bicycle Compound Number 125 (TBMB scaffold)] , what Ki is on record?
RESULT: 0.61 nM
